System: NB7 (Neuroblastoma)
Experiment summary: combination Emax (second highest fraction inhibited in the dose matrix, 72 h); higher = more inhibition; extreme values may be limits of the assay
Measured quantity: combination Emax
Respond using a number only.

Qu. So what does the record say about combination Emax for COc1nnc2ccc(N3CCC(c4ccc(OCCN5CCN(C)C(=O)[C@H]5C)cc4)CC3)nn12 [AZD5153] + CCN(CCO)CCCOc1ccc2c(Nc3cc(CC(=O)Nc4cccc(F)c4)[nH]n3)ncnc2c1 [AZD2811] (first compound max 1 µM, 7x7, partner max 1 µM) ?
Ans. 0.441

Qu. Try this compound too: CCc1c2c(nc3ccc(O)cc13)-c1cc3c(c(=O)n1C2)COC(=O)[C@]3(O)CC [SN-38] + O=C(c1cc(Cc2n[nH]c(=O)c3ccccc23)ccc1F)N1CCN(C(=O)C2CC2)CC1 [Olaparib] (first compound max 0.3 µM, 7x7, partner max 10 µM)
Ans. 0.967

Qu. Try this compound too: COc1cccc(OCCCN)c1-c1cc(Nc2cnc(C#N)cn2)n[nH]1 [Prexasertib] + Cc1cc2ncnn2cc1Nc1ncc2c(n1)n(C1CCOCC1)c(=O)n2C [AZD7648] (first compound max 1 µM, 7x7, partner max 10 µM)
Ans. 0.842

***
Qu. So what does the record say about combination Emax for Cc1c2c(nn1C)CSCc1cc(n(C)n1)CSc1cc(c3ccccc3c1)OCCCc1c(C(=O)O)n(C)c3c-2c(Cl)ccc13 [AZD5991] + CS(=O)(=O)CCNCc1ccc(-c2ccc3ncnc(Nc4ccc(OCc5cccc(F)c5)c(Cl)c4)c3c2)o1 [Lapatinib] (first compound max 1 µM, 7x7, partner max 10 µM) ?
Ans. 0.593

* * *

Each record here notes measured combination Emax.
System: OVISE (Ovarian Carcinoma)
Experiment summary: combination Emax (second highest fraction inhibited in the dose matrix, 72 h); higher = more inhibition; extreme values may be limits of the assay
Respond using a number only.

Take a look at these entries with their results.
Qu. Form entry - test system: OVISE (Ovarian Carcinoma); read-out: combination Emax; compound: COc1nnc2ccc(N3CCC(c4ccc(OCCN5CCN(C)C(=O)[C@H]5C)cc4)CC3)nn12 [AZD5153] + C[C@@H]1COCCN1C2=NC(=NC(=C2)C3(CC3)[S@](=N)(=O)C)C4=C5C=CNC5=NC=C4 [AZD6738] (first compound max 1 µM, 7x7, partner max 10 µM)
Ans. 0.754

Qu. Try this compound too: COc1cccc(OCCCN)c1-c1cc(Nc2cnc(C#N)cn2)n[nH]1 [Prexasertib] + C=CCn1c(=O)c2cnc(Nc3ccc(N4CCN(C)CC4)cc3)nc2n1-c1cccc(C(C)(C)O)n1 [AZD1775] (first compound max 1 µM, partner max 1 µM)
Ans. 0.763

Qu. Try this compound too: CC1(C)CCC(CN2CCN(c3ccc(C(=O)NS(=O)(=O)c4ccc(NCC5CCOCC5)c([N+](=O)[O-])c4)c(Oc4cnc5[nH]ccc5c4)c3)CC2)=C(c2ccc(Cl)cc2)C1 [Venetoclax] + C1CN(CCC1(C(=O)N[C@@H](CCO)C2=CC=C(C=C2)Cl)N)C3=NC=NC4=C3C=CN4 [Capivasertib] (first compound max 1 µM, 7x7, partner max 3 µM)
Ans. 0.456

Qu. Try this compound too: COc1cc2ncnc(Nc3ccc(F)c(Cl)c3)c2cc1OCCCN1CCOCC1 [Gefitinib] + CC(C)n1c(=O)n(C)c2cnc3cc(F)c(-c4ccc(OCCCN5CCCCC5)nc4)cc3c21 [AZD1390] (first compound max 10 µM, 7x7, partner max 0.3 µM)
Ans. 0.197

Qu. Try this compound too: C=CCn1c(=O)c2cnc(Nc3ccc(N4CCN(C)CC4)cc3)nc2n1-c1cccc(C(C)(C)O)n1 [AZD1775] + C[C@@H]1COCCN1C2=NC(=NC(=C2)C3(CC3)[S@](=N)(=O)C)C4=C5C=CNC5=NC=C4 [AZD6738] (first compound max 1 µM, partner max 10 µM)
Ans. 0.777

Qu. Try this compound too: COc1nnc2ccc(N3CCC(c4ccc(OCCN5CCN(C)C(=O)[C@H]5C)cc4)CC3)nn12 [AZD5153] + CN(CC[C@H](CSC1=CC=CC=C1)NC2=C(C=C(C=C2)S(=O)(=O)NC(=O)C3=CC=C(C=C3)N4CCC(CC4)[C@H](C5=CC=CC=C5C6=CC=C(C=C6)Cl)O)S(=O)(=O)C(F)(F)F)CCO [AZD4320] (first compound max 1 µM, 7x7, partner max 1 µM)
Ans. 0.9

Lab note: next compound to report on.
Qu. Form entry - test system: OVISE (Ovarian Carcinoma); read-out: combination Emax; compound: CS(=O)(=O)CCNCc1ccc(-c2ccc3ncnc(Nc4ccc(OCc5cccc(F)c5)c(Cl)c4)c3c2)o1 [Lapatinib] + C[C@@H](Oc1cc(-c2cnn(C3CCNCC3)c2)cnc1N)c1c(Cl)ccc(F)c1Cl [Crizotinib] (first compound max 10 µM, 7x7, partner max 10 µM)
Ans. 0.888

* * *

System: KP-2 (Pancreatic Carcinoma);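 note: after 72 h of two-drug dosing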
Experiment summary: Bliss excess, mean over the matrix (fraction); higher = more synergy
Measured quantity: Bliss excess
Respond using a number only.

Take a look at these entries with their results.
Qu. So what does the record say about Bliss excess for C[C@@H](c1ccc2nccn2c1)n1nnc2ncc(-c3cnn(C)c3)nc21 [Savolitinib] + CN(CC[C@H](CSC1=CC=CC=C1)NC2=C(C=C(C=C2)S(=O)(=O)NC(=O)C3=CC=C(C=C3)N4CCC(CC4)[C@H](C5=CC=CC=C5C6=CC=C(C=C6)Cl)O)S(=O)(=O)C(F)(F)F)CCO [AZD4320] (first compound max 1 µM, 7x7, partner max 1 µM) ?
Ans. -0.0136

Qu. Try this compound too: CN(C)CCCOc1ccc(-c2ccc3ncc4c(c3c2)n(C2CCOCC2)c(=O)n4C)cn1 [AZD0156] + C[C@@H]1COCCN1C2=NC(=NC(=C2)C3(CC3)[S@](=N)(=O)C)C4=C5C=CNC5=NC=C4 [AZD6738] (first compound max 1 µM, 7x7, partner max 10 µM)
Ans. 0.0173

Qu. Try this compound too: CC(=O)c1c(C)c2cnc(Nc3ccc(N4CCNCC4)cn3)nc2n(C2CCCC2)c1=O [Palbociclib] + Cc1c2c(nn1C)CSCc1cc(n(C)n1)CSc1cc(c3ccccc3c1)OCCCc1c(C(=O)O)n(C)c3c-2c(Cl)ccc13 [AZD5991] (first compound max 10 µM, 7x7, partner max 1 µM)
Ans. -0.0445

Qu. Try this compound too: CC1(C)CCC(CN2CCN(c3ccc(C(=O)NS(=O)(=O)c4ccc(NCC5CCOCC5)c([N+](=O)[O-])c4)c(Oc4cnc5[nH]ccc5c4)c3)CC2)=C(c2ccc(Cl)cc2)C1 [Venetoclax] + C[C@@H](Nc1cc(F)cc(F)c1)c1cc(C(=O)N(C)C)cc2c(=O)cc(N3CCOCC3)oc12 [AZD8186] (first compound max 1 µM, 7x7, partner max 3 µM)
Ans. -0.0312

Qu. Try this compound too: Cc1c2c(nn1C)CSCc1cc(n(C)n1)CSc1cc(c3ccccc3c1)OCCCc1c(C(=O)O)n(C)c3c-2c(Cl)ccc13 [AZD5991] + CN(C)CCCOc1ccc(-c2ccc3ncc4c(c3c2)n(C2CCOCC2)c(=O)n4C)cn1 [AZD0156] (first compound max 1 µM, 7x7, partner max 1 µM)
Ans. -0.0125

Qu. Try this compound too: Cc1cc2ncnn2cc1Nc1ncc2c(n1)n(C1CCOCC1)c(=O)n2C [AZD7648] + C=CCn1c(=O)c2cnc(Nc3ccc(N4CCN(C)CC4)cc3)nc2n1-c1cccc(C(C)(C)O)n1 [AZD1775] (first compound max 10 µM, partner max 1 µM)
Ans. -0.014

***
Qu. So what does the record say about Bliss excess for CN(CCO)CC[C@H](CSc1ccccc1)Nc1ccc(S(=O)(=O)NC(=O)c2ccc(N3CCC([C@@H](O)c4ccccc4-c4ccc(Cl)cc4)CC3)cc2)cc1S(=O)(=O)C(F)(F)F [AZD4320] + C1CN(CCC1(C(=O)N[C@@H](CCO)C2=CC=C(C=C2)Cl)N)C3=NC=NC4=C3C=CN4 [Capivasertib] (first compound max 1 µM, 7x7, partner max 3 µM) ?
Ans. -0.0583

Qu. Try this compound too: Cc1cc2ncnn2cc1Nc1ncc2c(n1)n(C1CCOCC1)c(=O)n2C [AZD7648] + CN(C)CCCOc1ccc(-c2ccc3ncc4c(c3c2)n(C2CCOCC2)c(=O)n4C)cn1 [AZD0156] (first compound max 10 µM, 7x7, partner max 1 µM)
Ans. -0.0182

Qu. Try this compound too: CC1(C)CCC(CN2CCN(c3ccc(C(=O)NS(=O)(=O)c4ccc(NCC5CCOCC5)c([N+](=O)[O-])c4)c(Oc4cnc5[nH]ccc5c4)c3)CC2)=C(c2ccc(Cl)cc2)C1 [Venetoclax] + C1CN(CCC1(C(=O)N[C@@H](CCO)C2=CC=C(C=C2)Cl)N)C3=NC=NC4=C3C=CN4 [Capivasertib] (first compound max 1 µM, 7x7, partner max 3 µM)
Ans. -0.0586

Qu. Try this compound too: COc1nnc2ccc(N3CCC(c4ccc(OCCN5CCN(C)C(=O)[C@H]5C)cc4)CC3)nn12 [AZD5153] + CC1(C)CCC(CN2CCN(c3ccc(C(=O)NS(=O)(=O)c4ccc(NCC5CCOCC5)c([N+](=O)[O-])c4)c(Oc4cnc5[nH]ccc5c4)c3)CC2)=C(c2ccc(Cl)cc2)C1 [Venetoclax] (first compound max 1 µM, 7x7, partner max 1 µM)
Ans. -0.0381

Qu. Try this compound too: Cc1c2c(nn1C)CSCc1cc(n(C)n1)CSc1cc(c3ccccc3c1)OCCCc1c(C(=O)O)n(C)c3c-2c(Cl)ccc13 [AZD5991] + CC1(C)CCC(CN2CCN(c3ccc(C(=O)NS(=O)(=O)c4ccc(NCC5CCOCC5)c([N+](=O)[O-])c4)c(Oc4cnc5[nH]ccc5c4)c3)CC2)=C(c2ccc(Cl)cc2)C1 [Venetoclax] (first compound max 1 µM, 7x7, partner max 1 µM)
Ans. 0.0157

Qu. Try this compound too: Cc1c2c(nn1C)CSCc1cc(n(C)n1)CSc1cc(c3ccccc3c1)OCCCc1c(C(=O)O)n(C)c3c-2c(Cl)ccc13 [AZD5991] + CCN(CCO)CCCOc1ccc2c(Nc3cc(CC(=O)Nc4cccc(F)c4)[nH]n3)ncnc2c1 [AZD2811] (first compound max 1 µM, 7x7, partner max 1 µM)
Ans. 0.0395
